Reference source: ChEMBL document CHEMBL4402608

# measuredTarget: UniProtKB P35462
# assayText: Agonist activity at human D3R expressed in CHOK1 cells assessed as induction of beta-arrestin recruitment measured after 90 mins by beta-galactosidase based PathHunter assay
# Format: cell-based
# conditionSummary: read-out: EC50
pEC50: −log10 of the molar value.
measuredEndpoint: pEC50

// worked examples, pEC50 included
Cc1cccc2cc(C(=O)N3CCN(CCOc4cccnc4)CC3)[nH]c12
7.59
COc1ccc(OCCN2CCN(C(=O)c3ccccc3)CC2)cc1
6.26
COc1ccc(OCCN2CCN(C(=O)c3ccc(OC)cc3)CC2)cc1
6.15

I. COc1ccc(OCCN2CCN(C(=O)c3cc4ccccc4s3)CC2)cc1
II. O=C(c1cc2ccccc2[nH]1)N1CCN(CCOc2ccc(Cl)cc2)CC1
III. O=C(c1cc2ccccc2[nH]1)N1CCN(CCOc2ccncc2)CC1
Query: Please put the entries in order of rising pEC50. // ordering of labels required in reply
Result: I, III, II
(I: 5.48, III: 6.33, II: 6.94)

---

# measuredTarget: D(3) dopamine receptor (Homo sapiens)
# Sequence (P35462 whole entry): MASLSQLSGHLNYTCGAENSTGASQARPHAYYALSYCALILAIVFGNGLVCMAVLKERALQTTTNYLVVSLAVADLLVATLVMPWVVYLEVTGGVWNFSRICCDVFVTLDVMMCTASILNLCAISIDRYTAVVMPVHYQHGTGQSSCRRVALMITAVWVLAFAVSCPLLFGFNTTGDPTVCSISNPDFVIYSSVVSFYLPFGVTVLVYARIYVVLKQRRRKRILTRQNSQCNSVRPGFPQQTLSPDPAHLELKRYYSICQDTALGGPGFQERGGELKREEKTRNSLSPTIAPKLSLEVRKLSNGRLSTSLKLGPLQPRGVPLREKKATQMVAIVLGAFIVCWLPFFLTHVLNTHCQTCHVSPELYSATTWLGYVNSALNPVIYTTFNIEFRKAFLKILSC
# assayText: Agonist activity at human D3R expressed in CHOK1 cells assessed as induction of beta-arrestin recruitment measured after 90 mins by beta-galactosidase based PathHunter assay
# Assay type: cell-based
# conditionSummary: read-out: EC50
pEC50: −log10 of the molar value.
measuredEndpoint: pEC50

// worked examples, pEC50 included
COc1ccc(C(=O)N2CCN(CCOc3ccccc3OC)CC2)cc1
6.56
COc1ccc(OCCN2CCN(C(=O)c3c[nH]c4ccccc34)CC2)cc1
6.68
CCc1ccc(C(=O)N2CCN(CCOc3ccc(OC)cc3)CC2)cc1
6.28
O=C(c1cc2ccccc2[nH]1)N1CCN(CCOc2ccccc2)CC1
8.04
O=C(c1cc2ccccc2[nH]1)N1CCN(CCOc2cccnc2)CC1
8.15
COc1ccc(OCCN2CCN(C(=O)c3ccncc3)CC2)cc1
4.66
COc1ccc(OCCN2CCN(C(=O)c3[nH]c4ccccc4c3C)CC2)cc1
5.72
COc1ccc2cc(C(=O)N3CCN(CCOc4cccnc4)CC3)[nH]c2c1
8.19

P. COc1ccc(OCCN2CCN(C(C)=O)CC2)cc1
Q. Cc1c(C(=O)N2CCN(CCOc3cccnc3)CC2)[nH]c2ccccc12
Query: Select one: P or Q . Criterion: greater recorded pEC50. Provide the label of your selected option as the answer.
Result: Q
(Q: 7.10, P: 5.01)
